# ASSAY INFO: decrease of insulin promoter-GFP reporter – imaging, high-content screening, mouse beta cells (AID 1628)
# ASSAY SETUP: MIN6 insulin promoter GFP reporter, at 5 µM, stronger effect = lower value
Screen size: about 190,000 compounds; about 930 (0.49%) were called active. The list shows a part of the results. Results with a measured potency or affinity are listed apart.
Some molecules, each annotated with its measured z-score.
METRIC: z-score

- c1ccc(CCNc2c3c(nc4ncnn24)CCC3)cc1: -3.18
- CCn1c(=NC(=O)c2ccc(S(=O)(=O)N(C)C)cc2)sc2cccc(OC)c21: -5.14
- CC(C)(C)c1cc(CCC(=O)NNC(=S)NC(=O)c2ccccc2)cc(C(C)(C)C)c1O: -4.33

----------
# ASSAY INFO: decrease of insulin promoter-GFP reporter – imaging, high-content screening, mouse beta cells (AID 1628)
# ASSAY SETUP: MIN6 insulin promoter GFP reporter, at 5 µM, stronger effect = lower value
Hit rate of the full screen: of about 190,000 compounds, about 930 (0.49%) were called active. Some of the results follow. Measured potencies and affinities stand elsewhere.
Checkbox rule: z-score lower than 3 = 1.0; z-score not lower than 3 = 0.0.

- C[C@@H](C(=O)Nc1ccc2ccccc2c1)[C@H]1C[C@]1(C)[C@H](NC(=O)c1cnccn1)c1ccccc1: 1.0
- CCOC(=O)N1CCN(C(=O)CSc2ccc3nnc(CCNC(=O)c4ccc(OC)cc4)n3n2)CC1: 0.0
- CCOC(=O)C1CCCN(CC(=O)Nc2c(C(=O)OC)[nH]c3ccc(C)cc23)C1 (centres undefined): 1.0
- CN1/C(=C\C=C(/C#N)C(=O)Nc2ccccc2F)C(C)(C)c2ccccc21: 0.0
- CN1CCN(C2=CC3=CC(=C(C#N)C#N)CCC3CC2)CC1 (centres undefined): 0.0
- O=C(NNC(=O)c1cccnc1)NC12CC3CC(CC(C3)C1)C2: 1.0
- C=CCNC(=O)C1CC2Cn3c(nc4cc5ccccc5cc43)C2N1C (centres undefined): 0.0
- C/C(=N\Nc1ccc([N+](=O)[O-])cc1)c1cc2ccccc2o1: 0.0
- CN1/C(=C\C=C2/C(=O)Oc3ccccc3C2=O)C(C)(C)c2ccccc21: 0.0
- O=C(COc1ccccc1)NCCn1ccc2ccccc21: 1.0
- Cn1c(-c2ccc3c(c2)OCO3)cc(=O)c2ccccc21: 1.0
- CN1/C(=C\C(=O)C[n+]2ccc3ccccc3c2)C(C)(C)c2ccccc21: 1.0
- NC1=NC[C@@H](Cc2ccc(O)cc2)N1CCCCC1CCCCC1: 1.0
- CC1CN(c2oc(COc3ccc(Cl)cc3Cl)nc2C#N)CC(C)O1 (centres undefined): 1.0
- COc1ccc(OC)c(C(c2nnnn2C2CCCC2)N2CCN(c3ccccc3F)CC2)c1 (centres undefined): 1.0
- Cc1ccc(C(C#N)c2ccc(C(=O)c3ccc(F)cc3)cc2)cc1 (centres undefined): 1.0
- CNC(=S)NNC(=O)c1oc2nc(-c3ccccc3)cc(-c3ccco3)c2c1N: 0.0
- O=C(CSc1nc2[nH]ncc2c(=O)n1-c1ccccc1)NCCc1ccccc1: 1.0
- CC(=O)Oc1ccc2c(c1)Oc1cc(OC(C)=O)ccc1C21OC(=O)c2ccccc21: 0.0
- Cc1cc(/C=C2\SC(=S)NC2=O)c(C)n1-c1ccc(O)cc1: 0.0
- CCOC(=O)/C(C#N)=C/C=C1\C=Cc2ccccc2N1CC: 0.0
- CCOC(=O)CC1C(=O)NCCN1S(=O)(=O)c1ccc(Cl)cc1Cl (centres undefined): 0.0
- COc1ccccc1C(=O)NC(=Nc1nc2ccccc2o1)NC(=O)c1ccccc1OC: 1.0

----------
# ASSAY INFO: decrease of insulin promoter-GFP reporter – imaging, high-content screening, mouse beta cells (AID 1628)
# ASSAY SETUP: MIN6 insulin promoter GFP reporter, at 5 µM, stronger effect = lower value
Hit rate of the full screen: of about 190,000 compounds, about 930 (0.49%) were called active. This is one part of the list. Results with a measured potency or affinity are listed apart.
The label is fulfilled for z-score below -4 and not fulfilled for z-score equal to or exceeding -4.

* COc1ccccc1N1C(=O)CC(Sc2n[nH]c(-c3cccc(C)c3)n2)C1=O (stereo not given) | fulfilled
* COc1cccc(NC(=O)CSc2nncn2N)c1 | not fulfilled
* CCOC(=O)N1CCN(C(=O)c2cc(S(=O)(=O)N3CCCC3)cn2C)CC1 | not fulfilled
* COc1cccc(NC(=O)CSc2nc3ccccc3c(=O)n2CCCC(=O)N2CCCC2)c1 | fulfilled
* Nc1nc(N2CCN(C(=O)c3ccco3)CC2)nc2ccc(Br)cc12 | not fulfilled
* COc1cc(N2CCCC2)c(OC)cc1/C=c1/sc2nc3ccccc3n2c1=O | not fulfilled
* Cc1ccc(-c2nnc(Cc3ccc([N+](=O)[O-])cc3)o2)cc1 | not fulfilled
* COc1ccc(C2/C=C\CN(S(=O)(=O)c3cccc4cccnc34)CC(=O)N2Cc2ccc(F)cc2)cc1 (stereo not given) | not fulfilled
* COc1ccc(C2C(=O)c3ccccc3C2=O)cc1OC | not fulfilled
